Measured Percent Effect of individual entries
target: Sialic acid-binding Ig-like lectin 9 (Homo sapiens); assay: Hs-Siglec9 ALPHAscreen SOP 20170721; parameters: scale not given: direction of the effect not stated beside the values; conditions: 10 µM
Answer format: numeric, % implied, no suffix.

molecule	Percent Effect [%]
CNC(=O)[C@@]12CCCN(c3ncccn3)[C@@H]1CN(C(=O)NC(C)C)C2	-13.2

## Task Find Percent Effect for Cc1c(C2CCCN(C(=O)Cc3ccccn3)C2)n2c(nc1=O)CCC2 (stereo unspecified) on Sialic acid-binding Ig-like lectin 9 (Homo sapiens) and write it down.
## Result -3.29

## Task Recall the reported Percent Effect of Cc1nc(CN2CCn3cc(CNC(=O)C4CCC4)nc3C2)cs1 on Sialic acid-binding Ig-like lectin 9 (Homo sapiens) and write it down.
## Result 6.49

## Task Provide the reported Percent Effect (system: Sialic acid-binding Ig-like lectin 9 (Homo sapiens)) for CCC(C)(NCC(=O)Nc1ccccc1)c1nc(C)cs1 (stereo unspecified)
## Result 30.5

## Task Name the value of Percent Effect reported for CCC(=O)Nc1nnc(CCCOc2ccccc2)s1 when tested on Sialic acid-binding Ig-like lectin 9 (Homo sapiens).
## Result 2.25

## Task Answer briefly: Percent Effect recorded on Sialic acid-binding Ig-like lectin 9 (Homo sapiens) for COc1ccc(-c2nc(CN3CCOCS3(=O)=O)c(C)o2)cc1
## Result 2.98

## Task Specify the recorded Percent Effect for Cc1cnn(CC2CCCN2C(=O)c2ccc3cc[nH]c3c2)c1 (stereo unspecified) , system: Sialic acid-binding Ig-like lectin 9 (Homo sapiens).
## Result 1.53

## Task Enter measured Percent Effect, system Sialic acid-binding Ig-like lectin 9 (Homo sapiens), for the molecule shown: CCc1noc(C)c1C(=O)N1CCCC1Cn1nc(C)cc1C (stereo unspecified)
## Result -4.06

## Task State Percent Effect on Sialic acid-binding Ig-like lectin 9 (Homo sapiens). Entry: Cn1cc(-c2nc(CN3CCN(CCO)CC3)cs2)cn1
## Result -2.39

## Task Quote Percent Effect with test system Sialic acid-binding Ig-like lectin 9 (Homo sapiens) for Cc1ccccc1[C@@H]1CN(C(=O)c2ccc3[nH]nnc3c2)C[C@H]1C(=O)O
## Result 1.72
